For each record, write down the corresponding binding signal.
target: OsWRKY34 (Oryza sativa, UniProt Q0JBA9 1-250); experiment: protein-binding microarray (RPBM); PBS, 2% BSA, 51.3 ng/ul salmon testes DNA, 50 uM zinc acetate, 200 nM TF, 25 C, 1 h; high values mean tight binding; settings: protein: recombinant; tags: N-terminal polyhistidine and DsRed monomer fusion (pET32a); label: CyDye5-dUTP incorporated in the synthesized complementary strand; 3' TTTTT single-stranded linker to array surface; dsDNA, one strand shown
Sequence (Q0JBA9 entry or part of it): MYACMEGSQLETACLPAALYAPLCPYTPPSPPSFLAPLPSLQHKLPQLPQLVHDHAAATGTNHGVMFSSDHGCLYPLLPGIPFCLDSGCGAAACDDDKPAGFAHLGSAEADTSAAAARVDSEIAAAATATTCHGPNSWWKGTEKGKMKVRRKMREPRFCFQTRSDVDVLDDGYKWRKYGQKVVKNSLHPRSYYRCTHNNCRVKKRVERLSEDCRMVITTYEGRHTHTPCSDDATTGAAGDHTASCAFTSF
Over roughly 68,000 sequences, “fluorescence intensity (a.u.)” has its median near 9,100; the highest 2% begin near 16,000. Only a selection was taken, and the highest values are over-represented in it overall.

>>> result("TGATAGTGGTGGGGTGGTATTGGTCCTAGCTTTGTACTCCCGGAGTCACCTAGTGCAG")
"18700 fluorescence intensity (a.u.)"
>>> result("AAATGTGGTTTTGATGGTTTCCAACATATATTTATCGGTTCGGAGTCACCTAGTGCAG")
"8570 fluorescence intensity (a.u.)"
>>> result("ACTCTTATTGTCTTCACGTTGTCTTATCAGCCACGATCAACGGAGTCACCTAGTGCAG")
"17900 fluorescence intensity (a.u.)"
>>> result("TCAGCTATCATAGTCTTCTAGAATGCTCTTCTTGTCAGATCGGAGTCACCTAGTGCAG")
"8220 fluorescence intensity (a.u.)"

Hi team, please reply with binding signal for each item in this list.
1. GCAATACACCTGATTTGATACTTCTTCCGATATAATACTCCGGAGTCACCTAGTGCAG
2. TATTGGGTGCTTTTGTCCTCAGGTGTGGTATATAGGTACCCGGAGTCACCTAGTGCAG
3. CGTATTTTAATATATGACGCCGTTGACTTTTTATTAACGACGGAGTCACCTAGTGCAG
4. CCGTATTTGAATATATGACGCCGTTGACTTTTTAACTAATCGGAGTCACCTAGTGCAG
5. AAAATTCTTGGTCTTCTTGGTCTCGGTTAGTTCGGTTCGACGGAGTCACCTAGTGCAG
6. AGCATATCAGCCACTCTTTCTTCTTTGTCTTTATCAACTCCGGAGTCACCTAGTGCAG

["8900 fluorescence intensity (a.u.)", "8060 fluorescence intensity (a.u.)", "23200 fluorescence intensity (a.u.)", "17900 fluorescence intensity (a.u.)", "8110 fluorescence intensity (a.u.)", "8250 fluorescence intensity (a.u.)"]
